- TARGET_UNDER_TEST: delF508-CFTR (Homo sapiens, UniProt P13569, DEL508-508)
- Construct: functional activity of the CFTR channel (Chloride ion transport) in patient derived primary human bronchial epithelial cells; host or cells: patient-derived primary human bronchial epithelial cells (delF508-CFTR)
- Sequence (P13569 with tags, fused parts or gaps DEL508-508): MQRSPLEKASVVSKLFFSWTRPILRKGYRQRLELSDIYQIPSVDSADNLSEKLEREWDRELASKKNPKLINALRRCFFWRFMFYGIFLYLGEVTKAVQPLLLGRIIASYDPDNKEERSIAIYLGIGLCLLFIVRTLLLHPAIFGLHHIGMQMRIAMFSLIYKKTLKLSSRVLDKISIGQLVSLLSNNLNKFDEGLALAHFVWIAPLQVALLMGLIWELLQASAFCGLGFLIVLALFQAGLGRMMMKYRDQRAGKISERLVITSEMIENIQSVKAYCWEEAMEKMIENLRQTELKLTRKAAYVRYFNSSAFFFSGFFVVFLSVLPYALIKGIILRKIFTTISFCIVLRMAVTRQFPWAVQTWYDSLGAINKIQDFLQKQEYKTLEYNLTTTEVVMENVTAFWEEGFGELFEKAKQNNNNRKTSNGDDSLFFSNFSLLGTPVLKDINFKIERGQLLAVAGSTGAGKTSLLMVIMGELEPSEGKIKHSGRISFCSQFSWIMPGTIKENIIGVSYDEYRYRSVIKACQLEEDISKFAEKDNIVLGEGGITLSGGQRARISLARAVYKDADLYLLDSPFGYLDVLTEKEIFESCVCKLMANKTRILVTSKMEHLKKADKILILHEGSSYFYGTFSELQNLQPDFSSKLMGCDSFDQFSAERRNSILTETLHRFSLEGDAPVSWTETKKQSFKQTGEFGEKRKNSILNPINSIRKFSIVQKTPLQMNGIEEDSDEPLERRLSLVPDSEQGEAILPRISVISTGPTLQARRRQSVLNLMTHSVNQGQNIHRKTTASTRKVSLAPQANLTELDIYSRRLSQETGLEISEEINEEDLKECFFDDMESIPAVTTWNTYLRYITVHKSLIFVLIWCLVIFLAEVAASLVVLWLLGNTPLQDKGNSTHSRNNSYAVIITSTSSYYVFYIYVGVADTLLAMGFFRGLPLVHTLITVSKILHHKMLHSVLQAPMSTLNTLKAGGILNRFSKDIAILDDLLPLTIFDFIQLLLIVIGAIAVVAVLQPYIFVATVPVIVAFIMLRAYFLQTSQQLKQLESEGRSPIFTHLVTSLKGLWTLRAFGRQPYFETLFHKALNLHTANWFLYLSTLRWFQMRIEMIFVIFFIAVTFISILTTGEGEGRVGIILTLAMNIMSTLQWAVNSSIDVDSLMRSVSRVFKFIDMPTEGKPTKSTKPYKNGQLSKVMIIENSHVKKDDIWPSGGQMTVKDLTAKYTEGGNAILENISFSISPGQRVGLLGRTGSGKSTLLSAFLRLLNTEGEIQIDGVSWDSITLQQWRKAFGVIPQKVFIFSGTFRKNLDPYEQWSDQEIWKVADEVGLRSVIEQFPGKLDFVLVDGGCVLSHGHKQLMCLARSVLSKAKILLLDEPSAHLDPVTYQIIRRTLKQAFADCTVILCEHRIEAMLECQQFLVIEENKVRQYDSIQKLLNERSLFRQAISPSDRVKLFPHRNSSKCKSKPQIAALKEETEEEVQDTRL
- RUN_DESCRIPTION: Measurement of delF508-CFTR functional activity in primary human bronchial epithelial cells (HBECs) using Multi-Transepithelial Clamp Circuit (MTECC-24) assay
- Assay type: cell-based
- TEST_CONDITIONS: primary CF HBECs; test compound added 24h before assay plus potentiator; relative to reference combination (2 μM corrector + 0.5 μM potentiator)
- Protocol: [formula] Measurement of delF508-CFTR Functional Activity in Primary Human Bronchial Epithelial Cells (HBECs) Using Multi-Transepithelial Clamp Circuit (MTECC-24) Assay […] Modulators were added sequentially as follows while the MTECC24 instrument recorded the equivalent short circuit current (Ieq): […]
Structures can show the parent of a compound that is named as a salt.
Entries and their MTECC24 CFHBEC- Amax %
Numbers only here, please. The scale is %.

COMPOUND: Cc1ccc(C(F)(F)F)cc1-c1nc(NS(=O)(=O)c2cccc(N3CCNCC3)n2)ccc1Cl [Example 169, Hydrochloride]
VALUE_UNIT: %
MTECC24 CFHBEC- Amax %: 40.5
--
COMPOUND: Cc1ccc(F)cc1-c1nc(NS(=O)(=O)c2cccc(N3CCN[C@H](CO)C3)n2)ccc1C(F)(F)F [Example 175, Hydrochloride]
VALUE_UNIT: %
MTECC24 CFHBEC- Amax %: 63.4
--
COMPOUND: Nc1cccc(S(=O)(=O)Nc2ccc(Cl)c(-c3ccccc3C(F)(F)F)n2)n1
VALUE_UNIT: %
MTECC24 CFHBEC- Amax %: 86.7

// moving on: another record for MTECC24 CFHBEC- Amax %
Recorded MTECC24 CFHBEC- Amax % for Cc1cccc(C)c1-c1nc(NS(=O)(=O)c2cccc(N3CCN(C)CC3=O)n2)ccc1Cl with delF508-CFTR (Homo sapiens, UniProt P13569, DEL508-508), please? 73.9

---

- TARGET_UNDER_TEST: delF508-CFTR (Homo sapiens, UniProt P13569, DEL508-508)
- Construct: functional activity of the CFTR channel (Chloride ion transport) in patient derived primary human bronchial epithelial cells; host or cells: patient-derived primary human bronchial epithelial cells (delF508-CFTR)
- RUN_DESCRIPTION: Measurement of delF508-CFTR functional activity in primary human bronchial epithelial cells (HBECs) using Multi-Transepithelial Clamp Circuit (MTECC-24) assay
- Assay type: cell-based
- TEST_CONDITIONS: primary CF HBECs; test compound added 24h before assay plus potentiator; relative to reference combination (2 μM corrector + 0.5 μM potentiator)
Counter-ions that a name gives are not always drawn.
QUANTITY: MTECC24 CFHBEC- Amax % (%)
Give the value, in units of %, as a plain number.

Here are 5 compounds together with their reported answers.
COMPOUND: O=S(=O)(Nc1ccc(C(F)(F)F)c(-c2ccccc2C2CC2)n1)c1cccc(N2CC(O)C2)n1
MTECC24 CFHBEC- Amax % (%): 88.1

COMPOUND: Cc1ccc(F)cc1-c1nc(NS(=O)(=O)c2cccc(N[C@@H]3COCC[C@H]3O)n2)ccc1Cl
MTECC24 CFHBEC- Amax % (%): 73.4

COMPOUND: Cc1ccc(F)cc1-c1nc(NS(=O)(=O)c2cccc(N3CCN4C[C@@H](F)C[C@@H]4C3)n2)ccc1Cl
MTECC24 CFHBEC- Amax % (%): 112.7

COMPOUND: O=S(=O)(Nc1ccc(Cl)c(-c2ccccc2Cl)n1)c1cccc(N2CC(O)C2)n1
MTECC24 CFHBEC- Amax % (%): 104.9

COMPOUND: Cc1ccc(F)cc1-c1nc(NS(=O)(=O)c2ccnc(N3CC(C)(O)C3)c2)ccc1C(F)(F)F
MTECC24 CFHBEC- Amax % (%): 74.2

# returns recorded MTECC24 CFHBEC- Amax % (system: delF508-CFTR (Homo sapiens, UniProt P13569, DEL508-508)) for CO[C@H]1CCNC[C@H]1Nc1cccc(S(=O)(=O)Nc2ccc(C(F)(F)F)c(-c3ccccc3C)n2)n1 [Example 106, Hydrochloride] 106.4

And for Cc1ccccc1-c1nc(NS(=O)(=O)c2cccc(N[C@@H]3CCNC[C@@H]3F)n2)ccc1C(F)(F)F (relative stereo) [Example 117, Hydrochloride] ? 74.7

Do the same for Cc1cccc(C)c1-c1cc(C(F)(F)F)cc(NS(=O)(=O)c2cccc(N)n2)n1 please 97.56

Ok, now Cc1ccccc1-c1nc(NS(=O)(=O)c2cccc(N3CC4C(N)C4C3)n2)ccc1C(F)(F)F (stereo not drawn) [Example 107, Hydrochloride] 72.2
